# credit: PubChem BioAssay (NCI)

- System: IGROV1 ovarian
- TEST_NAME: NCI-60 one-dose screen, 48 h
- TEST_PARAMETERS: 10 µM unless noted
- Description: Growth inhibition of the IGROV1 human tumor cell line is measured as a screen for anti-cancer activity. Cells are grown in 96 well plates and exposed to the test compound for 48 hours. Compounds are tested at a single concentration, which is 10^-5 M for most compounds. The reported endpoint is percent growth (GI% or GIPRCNT), where numbers from 0 - 100% represent growth inhibition, and numbers from -100% - 0 represent cell death. For example, a value of 40 represents 60% growth inhibition. […]
This is part of a sample that, as a whole, favours compounds with a hit. Of some 83,000 tested, about 20% had one in any assay. Active and inactive are the calls of the source. The calls were made as follows: active = growth percent below 10; inactive = the rest.
// classify into active, inactive

Enquiry: So what was the verdict on COc1ccc(NC(=O)N/N=C/c2c[nH]c3ccccc23)cc1 in this test?
Return: inactive

Enquiry: Now the compound N#Cc1cc(-c2ccc3ncnc(N4CCc5cc(F)c(Cl)cc54)c3c2)cnc1N
Return: active

Enquiry: Can you check COc1ccc(C(=O)C[n+]2cccc3c4ccccc4ccc32)cc1 next?
Return: inactive

Enquiry: Same read-out for CC1=C(C(=O)OC(C)C)C(c2ccc(O)cc2)NC(=O)N1 (centres undefined) ?
Return: inactive

Enquiry: Queued: CC[C@]12C=CCN3CC[C@]4(C(=C(C(=O)OC)C1)Nc1cc(OC)c([C@@H]5[C@H]6O[C@H]6[C@@]6(CC)CC(C(=O)OC)=C7Nc8cc(O)ccc8[C@@]78CCN5[C@@H]68)cc14)[C@@H]32
Return: active

Enquiry: Then this compound: COc1nc(N)ncc1-c1ccc2ncnc(N3CCc4cc(F)c(Cl)cc43)c2c1
Return: active

Enquiry: Another compound to check: C=CCn1c(O)c(N=Nc2nc(-c3cc4ccccc4oc3=O)cs2)c2ccccc21
Return: inactive

Enquiry: Entry to check: CC[C@@]12CC(C(=O)OC)=C3Nc4cc5c(cc4[C@@]34CCN(C[C@H]3O[C@H]31)[C@@H]24)[C@@H]1[C@H](O5)[C@@H](O)[C@@]2(CC)CC(C(=O)OC)=C3Nc4cc(O)ccc4[C@@]34CCN1[C@@H]24
Return: active

Enquiry: Quick one: NCCCCn1c(SCCc2c[nH]c3ccccc23)nnc1-c1ccc2ccccc2n1
Return: active

Enquiry: Thanks! And COc1ccc(-c2cc(C)nc3[nH]c(=O)sc23)cc1 ?
Return: inactive

Enquiry: Likewise for CCCCNc1ccc2c3c(cccc13)C(=O)N(NCC(O)COc1ccc3c(C)cc(=O)oc3c1)C2=O (centres undefined) ?
Return: inactive

Enquiry: Field entry: O=C(Nc1nc2ccccc2s1)Nc1ccccc1Cl
Return: inactive

Enquiry: How about CN1CCc2c(sc3ncnc(N/N=C/c4cccc(Cl)c4Cl)c23)C1 ?
Return: inactive

Enquiry: Then what about the compound CCCCNC(=S)Nc1ccc(OCc2nc3ccc(Cl)cc3[nH]2)cc1 ?
Return: inactive

Enquiry: Entry NNc1ncnc2sc3c(c12)CCN(Cc1ccccc1)C3 please
Return: inactive

Enquiry: Likewise for O=C(c1ccc(Cl)cc1)C1[C@H](c2ccccc2Cl)[C@@H](c2ccccc2)NC12C(=O)Nc1ccc(Cl)cc12 (some centres undefined) ?
Return: active

Enquiry: Again, but for CCN1C(=O)N(CC)C2NNC(Sc3c(C(=O)O)c4ccccc4n(CCC(C)C)c3=O)=NC21 (centres undefined)
Return: inactive

Enquiry: One more compound: Cn1cc(-c2cc(N)n3nc(-c4c[nH]c5ccccc45)cc3n2)c2cc(F)ccc21
Return: inactive

Enquiry: # repeat for Cc1cccc(NCC(=O)N2CCN(c3ncnc4c3cnn4-c3ccccc3)CC2)c1
Return: inactive
